The origin of these recorded values is patent US7820692B2.

# TEST SYSTEM: κ-opioid receptor (Homo sapiens, UniProt P41145)
# PROCEDURE DETAILS: Radioligand receptor binding assay, competition with [3H]diprenorphine, κ-receptor
# MEASUREMENT PARAMETERS: Ki=IC50/(1+[L]/Kd)
Property: Ki; scope: individual compounds
# include the unit after the value

These recorded examples may help you get a feel for the data.
COc1ccc2c(c1)C(CN1CCCC1)N(C(=O)C1CC(=O)c3ccccc31)CC2 (stereo not drawn) [I-14] = 270 nM
O=C1CC(C(=O)N2CCc3ccccc3C2CN2CCCC2)c2ccccc21 (stereo not drawn) [I-1] = 0.438 nM
COc1cc2c(cc1OC)C(C(=O)N1CCc3ccccc3C1CN1CCCC1)CC2=O (stereo not drawn) [I-5] = 1.34 nM
O=C1CC(C(=O)N2CCc3ccccc3C2CN2CCCC2)c2cc(Cl)ccc21 (stereo not drawn) [I-6] = 0.0299 nM
COc1ccc2c(c1)C(CN1CCCC1)N(C(=O)C1CC(=O)c3ccc(Cl)cc31)CC2 (stereo not drawn) [I-18] = 17.1 nM

Turning now to a further record.
query: Identify measured Ki corresponding to COc1ccc2c(c1)C(C(=O)N1CCc3ccccc3C1CN1CCCC1)CC2=O (stereo not drawn) [I-13]
result: 0.909 nM
